The reported measurements were obtained from patent US11584747B2.

Target: human DGKζ (Homo sapiens (Human))
Sequence (Q13574 other isoform, or with tags, fused parts or gaps): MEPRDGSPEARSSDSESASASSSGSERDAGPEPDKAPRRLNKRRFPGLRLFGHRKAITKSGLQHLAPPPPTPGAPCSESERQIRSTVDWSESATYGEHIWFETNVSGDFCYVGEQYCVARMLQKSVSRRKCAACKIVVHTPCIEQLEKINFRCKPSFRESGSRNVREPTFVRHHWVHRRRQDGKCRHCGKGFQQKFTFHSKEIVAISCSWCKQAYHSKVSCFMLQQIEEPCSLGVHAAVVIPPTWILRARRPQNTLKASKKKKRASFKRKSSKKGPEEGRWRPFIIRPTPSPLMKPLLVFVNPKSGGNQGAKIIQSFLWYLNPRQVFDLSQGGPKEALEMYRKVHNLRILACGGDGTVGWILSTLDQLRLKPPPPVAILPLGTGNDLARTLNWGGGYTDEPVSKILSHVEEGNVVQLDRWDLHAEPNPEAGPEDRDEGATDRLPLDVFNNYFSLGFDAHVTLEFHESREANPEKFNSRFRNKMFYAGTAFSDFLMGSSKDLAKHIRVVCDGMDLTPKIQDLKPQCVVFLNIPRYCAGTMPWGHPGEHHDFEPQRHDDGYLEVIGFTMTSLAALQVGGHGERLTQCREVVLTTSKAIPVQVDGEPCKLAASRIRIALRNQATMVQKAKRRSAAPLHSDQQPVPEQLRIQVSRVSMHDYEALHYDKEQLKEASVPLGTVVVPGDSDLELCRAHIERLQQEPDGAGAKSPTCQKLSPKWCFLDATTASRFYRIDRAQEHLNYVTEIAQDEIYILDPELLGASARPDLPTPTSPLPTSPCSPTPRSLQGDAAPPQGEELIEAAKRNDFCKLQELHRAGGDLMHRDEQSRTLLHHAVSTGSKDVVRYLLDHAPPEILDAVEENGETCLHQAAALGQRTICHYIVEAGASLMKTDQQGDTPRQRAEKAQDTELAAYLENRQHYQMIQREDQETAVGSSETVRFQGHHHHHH
Assay: DGKζ LIPGLO assay (extruded liposome substrate, ADP-Glo luminescence)
Type: biochemical
Conditions: liposome (LIPGLO) assay; read-out: DGK zeta (liposome assay) IC50
endpointLabel: pIC50
In textbook form, pIC50 equals minus log to base ten of the concentration in mol/L.

For the record CCC(c1ccc(OC)cc1)N1C[C@H](C)N(c2nc(=O)n(C)c3ccc(C#N)nc23)C[C@H]1CC (some centres unmarked) [Example 304] , what value of pIC50 is listed for human DGKζ (Homo sapiens (Human))?
7.85

For the record CCC(c1ccc(OCCC(F)(F)F)cc1)N1C[C@H](C)N(c2nc(=O)n(C)c3ccc(C#N)nc23)C[C@H]1CC (single isomer, unassigned) [Example 335] , what value of pIC50 is listed for human DGKζ (Homo sapiens (Human))?
6.92

For the record CC(c1ccc(C(F)(F)F)cc1)N1C[C@H](CO)N(c2nc(=O)n(C)c3ccc(C#N)nc23)C[C@H]1C (single isomer, unassigned) [Example 406] , what value of pIC50 is listed for human DGKζ (Homo sapiens (Human))?
4.09

For the record CCC(c1ccc(OCCC(F)(F)F)cc1)N1C[C@H](C)N(c2nc(=O)n(C)c3ccc(C#N)nc23)C[C@H]1CC (single isomer, unassigned) [Example 336] , what value of pIC50 is listed for human DGKζ (Homo sapiens (Human))?
5.96

For the record CCOC[C@@H]1CN(c2nc(=O)n(C)c3ccc(C#N)nc23)[C@@H](C)CN1C(CC)c1ccc(C(F)(F)F)cc1 (some centres unmarked) [Example 400] , what value of pIC50 is listed for human DGKζ (Homo sapiens (Human))?
7.33

For the record CCC(c1ccc(C(F)(F)F)cc1)N1C[C@H](CC)N(c2nc(=O)n(C)c3ccc(OC)nc23)C[C@H]1CC (some centres unmarked) [Example 436] , what value of pIC50 is listed for human DGKζ (Homo sapiens (Human))?
3.60

For the record CC[C@@H]1CN(c2nc(=O)n(C)c3ccc(C#N)nc23)[C@@H](C)CN1C(c1nc(C2CC2)no1)C(C)C (some centres unmarked) [Example 366] , what value of pIC50 is listed for human DGKζ (Homo sapiens (Human))?
6.21

For the record CC(c1ccc(C(F)(F)F)cc1)N1C[C@H](CO)N(c2nc(=O)n(C)c3ccc(C#N)nc23)C[C@H]1C (single isomer, unassigned) [Example 407] , what value of pIC50 is listed for human DGKζ (Homo sapiens (Human))?
4.51

For the record CC[C@@H]1CN(c2nc(=O)n(C)c3ccc(C#N)nc23)[C@@H](C)CN1C(C)c1ccc(C(F)(F)F)c(C#N)c1 (single isomer, unassigned) [Example 356] , what value of pIC50 is listed for human DGKζ (Homo sapiens (Human))?
6.36

For the record CCOc1ccc2c(n1)c(N1C[C@@H](CC)N(C(C)c3ccc(C(F)(F)F)cc3)C[C@@H]1CC)nc(=O)n2C (some centres unmarked) [Example 430] , what value of pIC50 is listed for human DGKζ (Homo sapiens (Human))?
3.90

For the record CC[C@H]1CN(C(C)c2ccc(C(F)(F)F)cc2)[C@H](CC)CN1c1nc(=O)n(C)c2ccc(OCCN(C)C)nc12 (some centres unmarked) [Example 432] , what value of pIC50 is listed for human DGKζ (Homo sapiens (Human))?
4.38

For the record CCOc1ccc(C(CC)N2C[C@H](C)N(c3nc(=O)n(C)c4ccc(C#N)nc34)C[C@H]2CC)cc1 (some centres unmarked) [Example 307] , what value of pIC50 is listed for human DGKζ (Homo sapiens (Human))?
6.11

For the record CCC(c1ccc(C2CC2)cc1)N1C[C@H](C)N(c2nc(=O)n(C)c3ccc(C#N)nc23)C[C@H]1C (some centres unmarked) [Example 378] , what value of pIC50 is listed for human DGKζ (Homo sapiens (Human))?
6.82

For the record CCOc1ccc(CN2C[C@H](C)N(c3nc(=O)n(C)c4ccc(C#N)nc34)C[C@H]2CC)cc1 , what value of pIC50 is listed for human DGKζ (Homo sapiens (Human))?
6.55

For the record CC[C@H]1CN(C(C)c2nc(C3CC3)no2)[C@H](CC)CN1c1nc(=O)n(C)c2ccc(C#N)nc12 (some centres unmarked) [Example 361] , what value of pIC50 is listed for human DGKζ (Homo sapiens (Human))?
7.66

For the record CCC(C1CC1)N1C[C@H](C)N(c2nc(=O)n(C)c3ccc(C#N)nc23)C[C@H]1C (some centres unmarked) [Example 454] , what value of pIC50 is listed for human DGKζ (Homo sapiens (Human))?
4.54

For the record C[C@@H]1CN(c2nc(=O)n(C)c3ccc(C#N)nc23)[C@@H](C)CN1C(c1ccc(Cl)cc1)c1ccc(Cl)cc1 , what value of pIC50 is listed for human DGKζ (Homo sapiens (Human))?
5.59

For the record CCC(c1ccc(OCC2CN(C)C2)cc1)N1C[C@H](C)N(c2nc(=O)n(C)c3ccc(C#N)nc23)C[C@H]1CC (some centres unmarked) [Example 343] , what value of pIC50 is listed for human DGKζ (Homo sapiens (Human))?
5.20

For the record CCC(C1CCC(F)(F)CC1)N1C[C@H](C)N(c2nc(=O)n(C)c3ccc(C#N)nc23)C[C@H]1C (some centres unmarked) [Example 460] , what value of pIC50 is listed for human DGKζ (Homo sapiens (Human))?
4.92

For the record CCC(c1ccc(C2OCCO2)cc1)N1C[C@H](C)N(c2nc(=O)n(C)c3ccc(C#N)nc23)C[C@H]1CC (some centres unmarked) [Example 331] , what value of pIC50 is listed for human DGKζ (Homo sapiens (Human))?
7.48

For the record CC[C@H]1CN(C(C)c2ccc(C(F)(F)F)cc2)[C@H](CC)CN1c1nc(=O)n(C)c2ccc(OCCOC)nc12 (some centres unmarked) , what value of pIC50 is listed for human DGKζ (Homo sapiens (Human))?
3.90

For the record CCOc1ccc2c(n1)c(N1C[C@@H](CC)N(C(CC)c3ccc(C(F)(F)F)cc3)C[C@@H]1CC)nc(=O)n2C (some centres unmarked) [Example 437] , what value of pIC50 is listed for human DGKζ (Homo sapiens (Human))?
3.60

For the record CC[C@H]1CN(C(C)c2ccc(C(F)(F)F)cc2)[C@H](CC)CN1c1nc(=O)n(C)c2ccc(OC(F)F)nc12 (some centres unmarked) [Example 444] , what value of pIC50 is listed for human DGKζ (Homo sapiens (Human))?
6.74

For the record CC[C@H]1CN(C(C)c2ccc(C(F)(F)F)cc2)[C@H](CC)CN1c1nc(=O)n(C)c2ccc(C(F)F)nc12 (some centres unmarked) [Example 439] , what value of pIC50 is listed for human DGKζ (Homo sapiens (Human))?
6.40

For the record CC(c1ccc(CN2CCC(F)(F)CC2)cc1)N1C[C@H](C)N(c2nc(=O)n(C)c3ccc(C#N)nc23)C[C@H]1C (some centres unmarked) [Example 391] , what value of pIC50 is listed for human DGKζ (Homo sapiens (Human))?
5.87

For the record CCC(c1ccc(C(F)(F)F)cc1)N1C[C@H](C)N(c2nc(=O)n(C)c3ccc(C#N)nc23)C[C@H]1COC (single isomer, unassigned) [Example 398] , what value of pIC50 is listed for human DGKζ (Homo sapiens (Human))?
7.19
